Biological target: Cathepsin D (Bos taurus, UniProt P80209)
Sequence (P80209 whole entry): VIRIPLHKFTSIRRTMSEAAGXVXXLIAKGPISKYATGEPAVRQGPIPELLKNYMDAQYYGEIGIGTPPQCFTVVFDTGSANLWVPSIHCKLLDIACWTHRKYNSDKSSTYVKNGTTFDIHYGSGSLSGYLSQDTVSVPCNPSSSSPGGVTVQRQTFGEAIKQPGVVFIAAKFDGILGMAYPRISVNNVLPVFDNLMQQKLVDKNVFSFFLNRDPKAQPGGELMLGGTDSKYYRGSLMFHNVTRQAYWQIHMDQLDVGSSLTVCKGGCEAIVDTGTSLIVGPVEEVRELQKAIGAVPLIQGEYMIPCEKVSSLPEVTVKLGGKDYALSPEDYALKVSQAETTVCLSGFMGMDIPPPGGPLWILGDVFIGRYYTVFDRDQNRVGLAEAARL
Experiment: Inhibition of conversion of hemoglobin by commercially purchased bovine spleen cathepsin D.
pIC50: −log10 of the molar value.
Each record here notes measured pIC50.

{"COMPOUND": "CC[C@@H](C)[C@H](NC(=O)OC(C)(C)C)C(=O)N[C@H](C(=O)N[C@@H](Cc1ccc2ccccc2c1)[C@@H](O)[C@@H](O)CC(C)C)[C@H](C)CC", "ASSAY_TARGET": "Cathepsin D (Bos taurus, UniProt P80209)", "pIC50": "< 5.00"}
{"COMPOUND": "CC[C@@H](C)[C@H](NC(=O)OC(C)(C)C)C(=O)N[C@H](C(=O)N[C@@H](Cc1cccc2ccccc12)[C@@H](O)[C@@H](O)CC(C)C)[C@H](C)CC", "ASSAY_TARGET": "Cathepsin D (Bos taurus, UniProt P80209)", "pIC50": "< 5.00"}
{"COMPOUND": "CCC(C)[C@H](NC(=O)OC(C)(C)C)C(=O)N[C@H](C(=O)N[C@@H](CC(C)C)C(O)CC(=O)NCCCCO)C(C)CC (stereo partly drawn)", "ASSAY_TARGET": "Cathepsin D (Bos taurus, UniProt P80209)", "pIC50": 7.09}
